Data credit: ChEMBL document CHEMBL2434906

Below, each entry is listed with its recorded pIC50.
System: U-937
assayProtocol: Cytotoxicity against human U937 cells after 24 hrs by MTT assay
Type: functional, cell-based
conditionSet: U-937, 24 h
// returns pIC50 (minus log10 of molar concentration), number only

Use the examples below as a reference point.
# structureSmiles, pIC50
measured = [
    ("Cc1cccc(-c2nnc(SCCCN3CCN(c4ccccn4)CC3)[nH]2)c1", 4.28),
    ("Cc1ccc(-c2nnc(SCCCN3CCN(c4cccc(Cl)c4)CC3)[nH]2)cc1", 3.59),
    ("CC(C)(C)c1ccc(-c2nnc(SCCCN3CCOCC3)[nH]2)cc1", 3.81),
    ("CC(C)(C)c1ccc(-c2nn(CCCN3CCN(c4ccccc4)CC3)c(=S)[nH]2)cc1", 4.05),
]

Provide pIC50 value for the following compound: S=c1[nH]c(-c2ccc(Cl)cc2)nn1CCCN1CCN(c2cccc(Cl)c2)CC1
4.55

---

Below, each entry is listed with its recorded pIC50.
Tested on: U-937
assayProtocol: Cytotoxicity against human U937 cells after 24 hrs by MTT assay
Assay type: functional, cell-based
conditionSet: U-937, 24 h
pIC50: −log10 of the molar value.

# structureSmiles, system, pIC50
measured = [
    ("Clc1ccccc1-c1nnc(SCCCN2CCN(c3ccccn3)CC2)[nH]1", "U-937", "< 3.52"),
    ("CC(C)(C)c1ccc(-c2nnc(SCCCN3CCN(c4ccccc4)CC3)[nH]2)cc1", "U-937", 4.31),
    ("CCN1CCN(CCCn2nc(-c3ccc(OC)c(OC)c3)[nH]c2=S)CC1", "U-937", "< 3.52"),
    ("Cc1cccc(-c2nnc(SCCCN3CCN(c4ccccc4)CC3)[nH]2)c1", "U-937", "< 3.52"),
    ("Cc1ccc(-c2nn(CCCN3CCN(c4cccc(Cl)c4)CC3)c(=S)[nH]2)cc1", "U-937", "< 3.52"),
]

Provide pIC50 value for the following molecule: CCN1CCN(CCCSc2nnc(-c3ccccc3Cl)[nH]2)CC1
< 3.52

Provide pIC50 value for the following molecule: Clc1cccc(-c2nnc(SCCCN3CCN(c4ncccn4)CC3)[nH]2)c1
4.31

Provide pIC50 value for the following molecule: Clc1ccc(-c2nnc(SCCCN3CCN(c4ncccn4)CC3)[nH]2)cc1
3.99

---

Tested on: MCF7
assayProtocol: Cytotoxicity against human MCF7 cells after 24 hrs by MTT assay
Type: functional, cell-based
conditionSet: MCF7, 24 h
readoutName: IC50

Provide IC50 value for the following molecule: Clc1ccccc1-c1nnc(SCCCN2CCN(c3ccccn3)CC2)[nH]1
> 300 µM

Provide IC50 value for the following molecule: Cc1cccc(-c2nnc(SCCCN3CCN(c4ccccn4)CC3)[nH]2)c1
> 300 µM

Provide IC50 value for the following molecule: Cc1ccc(-c2nn(CCCN3CCN(c4cccc(Cl)c4)CC3)c(=S)[nH]2)cc1
> 300 µM

Provide IC50 value for the following molecule: Cc1cccc(-c2nnc(SCCCN3CCN(c4ccccc4)CC3)[nH]2)c1
> 300 µM

Provide IC50 value for the following molecule: CC(C)(C)c1ccc(-c2nn(CCCN3CCN(c4ccccc4)CC3)c(=S)[nH]2)cc1
> 300 µM

Provide IC50 value for the following molecule: CCN1CCN(CCCSc2nnc(-c3ccc(C)cc3)[nH]2)CC1
> 300 µM

Provide IC50 value for the following molecule: Cc1ccc(-c2nnc(SCCCN3CCN(c4cccc(Cl)c4)CC3)[nH]2)cc1
> 300 µM

---

Tested on: COLO 205
assayProtocol: Cytotoxicity against human COLO205 cells after 24 hrs by MTT assay
Assay type: functional, cell-based
conditionSet: COLO 205, 24 h
pIC50: −log10 of the molar value.
readoutName: pIC50

Use the examples below as a reference point.
# structureSmiles, pIC50
rows = [
    ("CC(C)(C)c1ccc(-c2nnc(SCCCN3CCOCC3)[nH]2)cc1", 3.81),
    ("Clc1ccc(-c2nnc(SCCCN3CCN(c4ncccn4)CC3)[nH]2)cc1", "< 3.52"),
    ("COc1ccc(-c2nn(CCCN3CCOCC3)c(=S)[nH]2)cc1OC", "< 3.52"),
    ("Fc1ccc(-c2nnc(SCCCN3CCN(Cc4ccccc4)CC3)[nH]2)cc1", 3.74),
    ("Cc1cccc(-c2nnc(SCCCN3CCN(c4ccccc4)CC3)[nH]2)c1", "< 3.52"),
    ("Cc1cccc(-c2nnc(SCCCN3CCN(c4ccccn4)CC3)[nH]2)c1", "< 3.52"),
    ("Cc1ccc(-c2nnc(SCCCN3CCN(c4cccc(Cl)c4)CC3)[nH]2)cc1", 3.86),
    ("Clc1ccccc1-c1nnc(SCCCN2CCN(c3ccccn3)CC2)[nH]1", "< 3.52"),
]

Provide pIC50 value for the following molecule: Cc1ccc(-c2nn(CCCN3CCN(c4cccc(Cl)c4)CC3)c(=S)[nH]2)cc1
< 3.52

Provide pIC50 value for the following molecule: c1ccc(Cc2nnc(SCCCN3CCN(c4ccccn4)CC3)[nH]2)cc1
< 3.52

Provide pIC50 value for the following molecule: CC(C)(C)c1ccc(-c2nn(CCCN3CCN(c4cccc(Cl)c4)CC3)c(=S)[nH]2)cc1
< 3.52

Provide pIC50 value for the following molecule: Fc1ccc(-c2nn(CCCN3CCN(Cc4ccccc4)CC3)c(=S)[nH]2)cc1
3.95

Provide pIC50 value for the following molecule: CCN1CCN(CCCSc2nnc(-c3ccccc3Cl)[nH]2)CC1
< 3.52

Provide pIC50 value for the following molecule: COc1ccc(-c2nn(CCCN3CCN(c4ccccn4)CC3)c(=S)[nH]2)cc1
< 3.52

---

Tested on: U-937
assayProtocol: Cytotoxicity against human U937 cells after 24 hrs by MTT assay
Type: functional, cell-based
conditionSet: U-937, 24 h
readoutName: pIC50
// returns pIC50 (minus log10 of molar concentration), number only

Use the examples below as a reference point.
# compound, pIC50
records = [
    ("Fc1ccc(-c2nnc(SCCCN3CCN(Cc4ccccc4)CC3)[nH]2)cc1", 3.91),
    ("c1ccc(Cc2nnc(SCCCN3CCN(c4ccccn4)CC3)[nH]2)cc1", 3.79),
]

// moving on: another record for pIC50
Provide pIC50 value for the following compound: COc1cc([C@@H]2c3cc4c(cc3[C@@H](O[C@@H]3O[C@@H]5CO[C@@H](C)O[C@H]5[C@H](O)[C@H]3O)[C@H]3COC(=O)[C@H]23)OCO4)cc(OC)c1O [ETOPOSIDE]
4.98

---

System: U-937
assayProtocol: Cytotoxicity against human U937 cells after 24 hrs by MTT assay
Format: functional, cell-based
conditionSet: U-937, 24 h
pIC50: −log10 of the molar value.
Below, each entry is listed with its recorded pIC50.

Use the examples below as a reference point.
# structureSmiles, readoutName, assayResult
records = [
    ("CC(C)(C)c1ccc(-c2nn(CCCN3CCN(c4cccc(Cl)c4)CC3)c(=S)[nH]2)cc1", "pIC50", "< 3.52"),
    ("Fc1ccc(-c2nn(CCCN3CCN(Cc4ccccc4)CC3)c(=S)[nH]2)cc1", "pIC50", "< 3.52"),
]

Provide pIC50 value for the following compound: COc1ccc(-c2nn(CCCN3CCOCC3)c(=S)[nH]2)cc1OC
< 3.52

Provide pIC50 value for the following compound: COc1ccc(-c2nn(CCCN3CCN(c4ccccn4)CC3)c(=S)[nH]2)cc1
< 3.52

Provide pIC50 value for the following compound: Clc1ccc(-c2nnc(SCCCN3CCN(c4cccc(Cl)c4)CC3)[nH]2)cc1
< 3.52

---

System: MCF7
assayProtocol: Cytotoxicity against human MCF7 cells after 24 hrs by MTT assay
Type: functional, cell-based
conditionSet: MCF7, 24 h
Below, each entry is listed with its recorded pIC50.
// returns pIC50 (minus log10 of molar concentration), number only

Use the examples below as a reference point.
# structureSmiles, pIC50
measured = [
    ("Fc1ccc(-c2nn(CCCN3CCN(Cc4ccccc4)CC3)c(=S)[nH]2)cc1", 3.89),
    ("CC(C)(C)c1ccc(-c2nnc(SCCCN3CCOCC3)[nH]2)cc1", 3.54),
]

// moving on: another record for pIC50
Provide pIC50 value for the following molecule: Fc1ccc(-c2nnc(SCCCN3CCN(Cc4ccccc4)CC3)[nH]2)cc1
3.73

---

Below, each entry is listed with its recorded IC50.
System: MCF7
assayProtocol: Cytotoxicity against human MCF7 cells after 24 hrs by MTT assay
Type: functional, cell-based
conditionSet: MCF7, 24 h

Use the examples below as a reference point.
# structureSmiles, assayResult
rows = [
    ("Clc1ccc(-c2nnc(SCCCN3CCN(c4ncccn4)CC3)[nH]2)cc1", "> 300 µM"),
    ("S=c1[nH]c(-c2ccc(Cl)cc2)nn1CCCN1CCN(c2cccc(Cl)c2)CC1", "> 300 µM"),
]

// moving on: another record for IC50
GET IC50 where system = MCF7 and item = CCN1CCN(CCCn2nc(-c3ccc(OC)c(OC)c3)[nH]c2=S)CC1
> 300 µM
